B1: PCDHGA10 (parent)
chain: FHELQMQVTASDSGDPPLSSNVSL

variants of: B1; test: protein stability index of a GFP-peptide fusion (GPS, HEK-293T) (PSI 1-6); higher = more stable; details: c terminus: a fixed tail appended;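 note: lentivirally expressed fusions sorted by FACS into six bins by GFP to DsRed ratio, PSI derived from sequencing read proportions per bin multiplied by bin number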
Quick rule: protein stability index of at least 2 means met, below that means not met.

Record excerpt, results attached:
query.sequence	class.name
FHELQMQVTASDSGDMPLSSNVSL [P16M]	met
FHELQMQVTASDSGDPPLSSNVSK [L24K]	met
FHELQMQVTASDSGDPPLSSNCSL [V22C]	met
FDELQMQVTASDSGDPPLSSNVSL [H2D]	met
FHELQMQVTASISGDPPLSSNVSL [D12I]	met
FHELQMQVTASDSGDPPLSSVVSL [N21V]	not met

**Q:** Test whether the variant FHQLQMQVTASDSGDPPLSSNVSL [E3Q] records protein stability index of 2 or higher.
**A:** not met

**Q:** Test whether the variant FHELQMQVTASDSGDPPLKSNVSL [S19K] records protein stability index of 2 or higher.
**A:** met

**Q:** Test whether the variant FHELQMQVTASDSGDPPLSSMVSL [N21M] records protein stability index of 2 or higher.
**A:** not met

**Q:** Test whether the variant FHELQMQVHASDSGDPPLSSNVSL [T9H] records protein stability index of 2 or higher.
**A:** met

**Q:** Test whether the variant FHELQMQVTASDSGVPPLSSNVSL [D15V] records protein stability index of 2 or higher.
**A:** not met

**Q:** Test whether the variant FHELQKQVTASDSGDPPLSSNVSL [M6K] records protein stability index of 2 or higher.
**A:** met
